- TARGET SYSTEM: UniProtKB Q13547
- Sequence (Q13547 whole entry): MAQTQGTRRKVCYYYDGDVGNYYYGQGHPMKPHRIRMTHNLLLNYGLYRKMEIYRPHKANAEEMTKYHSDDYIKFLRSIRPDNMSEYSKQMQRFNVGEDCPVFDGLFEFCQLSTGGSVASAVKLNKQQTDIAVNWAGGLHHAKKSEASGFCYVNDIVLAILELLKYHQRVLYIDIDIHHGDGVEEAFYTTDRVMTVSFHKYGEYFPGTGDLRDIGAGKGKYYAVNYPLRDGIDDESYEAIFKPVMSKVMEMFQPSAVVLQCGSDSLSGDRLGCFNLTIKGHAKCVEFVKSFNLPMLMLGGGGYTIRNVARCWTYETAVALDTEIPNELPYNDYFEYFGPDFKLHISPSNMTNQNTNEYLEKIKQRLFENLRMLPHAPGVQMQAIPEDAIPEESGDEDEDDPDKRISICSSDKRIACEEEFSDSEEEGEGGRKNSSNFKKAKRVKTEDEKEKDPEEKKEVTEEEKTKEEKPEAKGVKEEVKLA
- ASSAY METHOD TEXT: HDAC1-Flag in vitro deacetylation assay
- Type: biochemical
- MEASUREMENT SETUP: IP = inflection point; read-out: HDAC1 IP (inflection point)
Consider the following compounds and their measured IC50 readings.
Numbers only here, please. The scale is nM.

Here is how some compounds turned out for IC50.
Nc1ccc(-c2ccccc2)cc1NC(=O)c1ccc(CN2C(=O)OC[C@H]2Cc2ccccc2)cc1 : 89
Nc1ccc(-c2ccccc2)cc1NC(=O)c1ccc(CN2C(=O)OC[C@@H]2c2ccccc2)cc1 : 64

INPUT: Given the entry `COC(=O)c1ccc(-c2ccc(N)c(NC(=O)c3ccc(CNC(=O)OCc4cccnc4)cc3)c2)cc1` , report its measured IC50.
OUTPUT: 81

Source: patent US9096559B2
